Tested on: Escherichia coli TOP10
experiment-summary: shrunken log2 fold change of peptide-encoding DNA abundance (4.5 h post-induction vs induction); higher = less antimicrobial activity (less host growth inhibition)
experimental-setup: time post-induction: 4.5 h; library: site-saturation at positions 5, 18, 19, 20
Could you label it met if measured shrunken log2 fold change is 0.3 or higher, and not met otherwise?

These solved cases illustrate the format of a correct answer.
RRIRDRPPRLPRPRPRPPTPPRP	met
RRIRCRPPRLPRPRPRPGCDPRP	not met
RRIRLRPPRLPRPRPRPKRWPRP	met
RRIRVRPPRLPRPRPRPFPYPRP	not met
RRIRRRPPRLPRPRPRPHTQPRP	met

Could you now look at the following sequence, please?
Task: Given the entry RRIRGRPPRLPRPRPRPLWMPRP , answer whether its shrunken log2 fold change meets or surpasses 0.3.
Result: met

----------
Entries annotated with measured shrunken log2 fold change
Test system: Escherichia coli TOP10
experiment-summary: shrunken log2 fold change of peptide-encoding DNA abundance (4.5 h post-induction vs induction); higher = less antimicrobial activity (less host growth inhibition)
experimental-setup: time post-induction: 4.5 h; library: site-saturation at positions 5, 18, 19, 20
Please give only the number in your answer, with no unit.

Examples from the recorded data:
RRIRNRPPRLPRPRPRPHNNPRP	-1.05
RRIRHRPPRLPRPRPRPWMPPRP	0.0474

# sequence RRIRCRPPRLPRPRPRPWYHPRP ; its shrunken log2 fold change = -0.392

----------
Tested on: Escherichia coli TOP10
experiment-summary: shrunken log2 fold change of peptide-encoding DNA abundance (4.5 h post-induction vs induction); higher = less antimicrobial activity (less host growth inhibition)
experimental-setup: time post-induction: 4.5 h; library: site-saturation at positions 5, 18, 19, 20
measured-quantity: shrunken log2 fold change
I'd appreciate a reply containing only the number, no unit.

Check out these entries, answers already filled in.
RRIRYRPPRLPRPRPRPLECPRP	-0.183
RRIRNRPPRLPRPRPRPHCKPRP	-0.249
RRIRYRPPRLPRPRPRPIEMPRP	0.0294
RRIRGRPPRLPRPRPRPVIAPRP	0.506
RRIRGRPPRLPRPRPRPWTSPRP	0.0439

response.value for RRIRVRPPRLPRPRPRPLHDPRP (field: shrunken log2 fold change) = -0.41

Noted for RRIRHRPPRLPRPRPRPSCIPRP : its shrunken log2 fold change reads -0.265

shrunken log2 fold change for RRIRPRPPRLPRPRPRPDDRPRP is 0.162

In plain terms, RRIRDRPPRLPRPRPRPGHVPRP has a documented shrunken log2 fold change of -0.0651

Note to self: shrunken log2 fold change recorded for RRIRVRPPRLPRPRPRPKTRPRP was 0.63

Recorded result, RRIRGRPPRLPRPRPRPCCVPRP , shrunken log2 fold change: 0.751

----------
Tested on: Escherichia coli TOP10;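 note: peptides expressed intracellularly from a pBAD plasmid library in pooled LB shake-flask culture, induced with 0.3% L-arabinose, DNA abundance read by NGS, three biological replicates, DESeq2 with apeglm shrinkage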
experiment-summary: shrunken log2 fold change of peptide-encoding DNA abundance (4.5 h post-induction vs induction); higher = less antimicrobial activity (less host growth inhibition)
experimental-setup: time post-induction: 4.5 h; library: site-saturation at positions 5, 18, 19, 20
measured-quantity: shrunken log2 fold change
Form: value (number only, do not type unit).

response.value for RRIRCRPPRLPRPRPRPEVIPRP (field: shrunken log2 fold change) = -0.083

In plain terms, RRIRNRPPRLPRPRPRPRQAPRP has a documented shrunken log2 fold change of 0.0453

shrunken log2 fold change measured on RRIRKRPPRLPRPRPRPMTFPRP = -0.00803

So for RRIRIRPPRLPRPRPRPMSKPRP , the logged shrunken log2 fold change turned out to be -0.332

Data origin, for the record: the supplement of paper PMC9112550
